These entries and their values trace back to ChEMBL document CHEMBL2417522.

system: KB; assay: Cytotoxicity against human KB cells by SRB method; type: functional
measured.endpoint: GI50 (nM)
Answers are plain numbers, in nM.

In the examples that follow, each entry is paired with its recorded GI50.
compound: COC(=O)c1cc(Cl)cc(N2CCCc3cc(OC)ccc32)c1
measured.endpoint: GI50
reading.unit: nM
number: 2330

compound: CNC(=O)c1ccc(Cl)cc1N(C)c1ccc(OC)cc1
measured.endpoint: GI50
reading.unit: nM
number: 188000

Give one value of GI50 per listed compound.
1. COc1ccc2c(c1)CCCN2c1cccc2ccccc12
2. COc1ccc(N(C)c2cc(Cl)ccc2CO)cc1
3. COC(=O)c1cc(Br)cc(N2CCCc3cc(OC)ccc32)c1

Ans.
1: 15600; 2: 19500; 3: 1370
